Measured binding affinity ratio, listed per entry.
target: HLA-A*0201 (human); experiment: competition with 125I-labelled standard peptide 941.01 for purified HLA, gel filtration; conditions: scale: ratio
Kindly provide the number alone.

Solved cases (5 shown):
GLPTQEPA (modifications not checked) [Kallikrein (hK2) peptide GLPTQEPA (position 140)] | -0.0001
VVHYRKWIKDT (modifications not checked) [… (PSA, position 242, 11 amino acids)] | 0.0001
WAHCGGVLV (modifications not checked) [… (Kallikrein, position 47, 9 amino acids)] | -0.0001
GAVEPDRYVI (modifications not checked) [PSM peptide … (position 364)] | 0.0002
VVHYRKWI (modifications not checked) [VVHYRKWI (PSA, position 242, 8 amino acids)] | 0.0001

Query: Look at this binder and give its reported binding affinity ratio. VVFLTLSV (modifications not checked) [VVFLTLSV (PSA, position 1, 8 amino acids)]
Reply: 0.0002

Query: Ok, now WAHCGGVL (modifications not checked) [WAHCGGVL (Kallikrein, position 47, 8 amino acids)]
Reply: -0.0001

Query: Ok, now WAEENSRLL (modifications not checked) [… (PSM, position 434, 9 amino acids)]
Reply: 0.0001

Origin of the recorded values: patent US20070020327A1
